Reported Ratio is given for each of the following compounds.
# Test summary: It is the ratio of topical(edema inhibition) to systemic (thymolysis) activities.
# Assay type: functional

Below are worked cases with known answers.
CSCC(=O)O[C@]1(C(=O)CCl)[C@@H](C)CC2C3CCC4=CC(=O)C=CC4(C)[C@@]3(F)[C@@H](O)CC21C (stereo partly drawn)    1
C[C@H]1CC2C3CCC4=CC(=O)C=CC4(C)[C@@]3(F)[C@@H](O)CC2(C)[C@@]1(OC(=O)CC1CC1)C(=O)CCl (stereo partly drawn)    0.46
C[C@H]1CC2C3CCC4=CC(=O)C=CC4(C)[C@@]3(F)[C@@H](O)CC2(C)[C@@]1(OC(=O)C1CC1)C(=O)CCl (stereo partly drawn)    0.34
C[C@H]1CC2C3CCC4=CC(=O)C=CC4(C)[C@@]3(F)[C@@H](O)CC2(C)[C@@]1(OC(=O)CCCCl)C(=O)CCl (stereo partly drawn)    5.5
CC(=O)OCCC(=O)O[C@]1(C(=O)CCl)[C@@H](C)CC2C3CCC4=CC(=O)C=CC4(C)[C@@]3(F)[C@@H](O)CC21C (stereo partly drawn)    18.6

Entry under test: COC(=O)CCC(=O)O[C@]1(C(=O)CCl)[C@@H](C)CC2C3CCC4=CC(=O)C=CC4(C)[C@@]3(F)[C@@H](O)CC21C (stereo partly drawn) . Its Ratio was > 130

Form: compound = COCCC(=O)O[C@]1(C(=O)CCl)[C@@H](C)CC2C3CCC4=CC(=O)C=CC4(C)[C@@]3(F)[C@@H](O)CC21C (stereo partly drawn) ; Ratio = 7.6

GET /value?item= CCC(=O)O[C@]1(C(=O)CCl)[C@@H](C)C[C@H]2[C@@H]3CCC4=CC(=O)C=C[C@]4(C)[C@@]3(F)[C@@H](O)C[C@@]21C [CLOBETASOL PROPIONATE] &field=Ratio returns 1

---

# Experimental target: UniProtKB P06536
# Sequence (P06536 whole entry): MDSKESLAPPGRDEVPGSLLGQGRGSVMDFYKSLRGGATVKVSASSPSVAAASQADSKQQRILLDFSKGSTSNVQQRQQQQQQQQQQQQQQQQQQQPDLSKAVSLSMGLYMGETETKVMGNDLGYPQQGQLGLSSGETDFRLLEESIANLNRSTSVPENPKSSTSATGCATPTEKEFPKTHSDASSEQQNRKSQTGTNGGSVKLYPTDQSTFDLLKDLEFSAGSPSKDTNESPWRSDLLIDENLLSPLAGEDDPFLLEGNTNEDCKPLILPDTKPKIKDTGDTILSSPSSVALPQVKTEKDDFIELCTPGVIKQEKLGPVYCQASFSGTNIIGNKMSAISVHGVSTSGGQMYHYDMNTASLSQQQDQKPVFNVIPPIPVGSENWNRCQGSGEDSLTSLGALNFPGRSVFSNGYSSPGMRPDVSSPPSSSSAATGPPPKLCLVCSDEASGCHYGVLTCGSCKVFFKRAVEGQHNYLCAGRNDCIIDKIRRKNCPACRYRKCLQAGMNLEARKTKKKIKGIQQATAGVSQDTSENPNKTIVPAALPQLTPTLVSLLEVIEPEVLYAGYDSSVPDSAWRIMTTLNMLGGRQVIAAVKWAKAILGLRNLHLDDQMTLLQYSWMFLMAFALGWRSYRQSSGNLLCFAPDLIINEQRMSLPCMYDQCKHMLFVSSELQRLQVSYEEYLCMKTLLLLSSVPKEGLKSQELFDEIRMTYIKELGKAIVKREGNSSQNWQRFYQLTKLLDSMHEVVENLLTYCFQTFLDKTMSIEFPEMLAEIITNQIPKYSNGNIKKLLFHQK
Experimental readout: IC50

Example entries begin here.
COC(=O)CCC(=O)O[C@]1(C(=O)CCl)[C@@H](C)CC2C3CCC4=CC(=O)C=CC4(C)[C@@]3(F)[C@@H](O)CC21C (stereo not given in full)    5.18 nM
C[C@H]1CC2C3CCC4=CC(=O)C=CC4(C)[C@@]3(F)[C@@H](O)CC2(C)[C@@]1(OC(=O)CCC(=O)O)C(=O)CCl (stereo not given in full)    > 150 nM
C[C@H]1CC2C3CCC4=CC(=O)C=CC4(C)[C@@]3(F)[C@@H](O)CC2(C)[C@@]1(OC(=O)CCC(=O)OC(C)(C)C)C(=O)CCl (stereo not given in full)    10.8 nM
CCC(=O)O[C@]1(C(=O)CCl)[C@@H](C)C[C@H]2[C@@H]3CCC4=CC(=O)C=C[C@]4(C)[C@@]3(F)[C@@H](O)C[C@@]21C [CLOBETASOL PROPIONATE]    3.17 nM

# context switch: different molecule, same IC50
IC50 for CCOC(=O)CCCC(=O)O[C@]1(C(=O)CCl)[C@@H](C)CC2C3CCC4=CC(=O)C=CC4(C)[C@@]3(F)[C@@H](O)CC21C (stereo not given in full) is 9.68 nM

Values were extracted from ChEMBL document CHEMBL1125859.
